- Tested on: SN12C renal
- ASSAY EXPLANATION: NCI-60 one-dose screen, 48 h
- TEST CONTEXT: 10 µM unless noted
The panel holds about 83,000 compounds, 20% with a hit somewhere; the sample as a whole holds those more often. Calls of active or inactive are those of the source. How the source made its calls: active means growth percent below 10; inactive means the rest.
Hello, when you answer, please use one of the following outcomes: active, inactive

CC1=C(O)C(=O)CC1
inactive
O=C1/C=C/[C@@H](O)[C@@H]2C[C@@H](O)C[C@H]2/C=C/CCC[C@H]([C@@H](O)CO)O1
inactive
O=C1N(Cc2ccccc2Cl)c2ccccc2C12NN=C(c1ccccc1)S2 (stereo unspecified)
inactive
O=C1/C(=C/c2ccccc2)SC(=Nc2ccccc2)N1Nc1ccccc1
active
O=C(N/N=C/c1ccc([N+](=O)[O-])o1)c1ccc(O)cc1
inactive

Okay, next one:
Input line: For O=S(=O)(Cc1ccc(Cl)cc1Cl)c1ccc(Cl)cc1 , which call appears in the assay record?
Output line: inactive
